# test target: Trace amine-associated receptor 1 (Homo sapiens) (UniProt Q96RJ0)
# Sequence (Q96RJ0 whole entry, looked up): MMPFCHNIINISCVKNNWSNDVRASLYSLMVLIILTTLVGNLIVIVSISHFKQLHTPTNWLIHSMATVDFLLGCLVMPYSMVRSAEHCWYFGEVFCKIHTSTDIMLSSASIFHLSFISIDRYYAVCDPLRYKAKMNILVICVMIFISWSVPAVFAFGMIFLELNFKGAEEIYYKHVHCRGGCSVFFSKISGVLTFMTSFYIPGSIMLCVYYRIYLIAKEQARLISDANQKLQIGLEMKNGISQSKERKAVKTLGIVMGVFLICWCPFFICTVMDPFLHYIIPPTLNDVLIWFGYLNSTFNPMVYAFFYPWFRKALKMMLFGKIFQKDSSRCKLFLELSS
# method: TAAR1 desensitization by agonist hits, confirmation, counter-screen for TAAR1 agonist project, cell-based, fluorescence, tachyphylaxis (AID 651951);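 also: beta-PEA stimulus applied at its EC80; loss of beta-PEA calcium signal after compound pretreatment read as receptor desensitization; 0% = DMSO with beta-PEA at EC80 and 100% = DMSO alone without agonist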
# measurement context: CHO RD-HGA16 hTAAR1, Fluo-8 calcium, beta-PEA response inhibition; at 3 µM; hits give high values
In all, about 2,400 compounds went through this assay and about 1,100 (46%) were called active. So high a share suggests a set chosen from earlier hits. Only a sample is shown.
property: inhibition (%)

[[record]]
compound = "COc1ccc(NC(=O)C(=O)NCC(c2ccco2)N2CCc3ccccc3C2)cc1 (stereo not given)"
test_target = "Trace amine-associated receptor 1 (Homo sapiens) (UniProt Q96RJ0)"
val = -6.26

[[record]]
compound = "O=C(CSc1nc(-c2ccco2)cc(C(F)(F)F)n1)NCc1cccs1"
test_target = "Trace amine-associated receptor 1 (Homo sapiens) (UniProt Q96RJ0)"
val = -5.52

[[record]]
compound = "Cc1ccc(NC(=O)CCN2CCc3ccccc3C2)cc1"
test_target = "Trace amine-associated receptor 1 (Homo sapiens) (UniProt Q96RJ0)"
val = 78

[[record]]
compound = "CN(C(=O)CN(CCO)CC(=O)N(C)C(C)(C)Cc1ccccc1)C(C)(C)Cc1ccccc1"
test_target = "Trace amine-associated receptor 1 (Homo sapiens) (UniProt Q96RJ0)"
val = 94.8

[[record]]
compound = "CC(=O)Nc1ccccc1Sc1ccc2c3c(cccc13)C(=O)N(c1ccc(C)cc1)C2=O"
test_target = "Trace amine-associated receptor 1 (Homo sapiens) (UniProt Q96RJ0)"
val = 5.11

[[record]]
compound = "CN(C)CCCN(C(=O)c1ccc(S(=O)(=O)N2CCCc3ccccc32)cc1)c1nc2ccc(F)cc2s1"
test_target = "Trace amine-associated receptor 1 (Homo sapiens) (UniProt Q96RJ0)"
val = 53.1

[[record]]
compound = "COc1ccc(OC)c(NC(=S)N2CCc3ccccc3C2)c1"
test_target = "Trace amine-associated receptor 1 (Homo sapiens) (UniProt Q96RJ0)"
val = 40.2

[[record]]
compound = "O=C(Nc1ccc(F)cc1)Nc1nnc([C@H]2C[C@H](O)[C@@H](CO)O2)s1"
test_target = "Trace amine-associated receptor 1 (Homo sapiens) (UniProt Q96RJ0)"
val = 25.5

[[record]]
compound = "O=C(COC(=O)Cc1ccccc1F)NCCc1ccccc1"
test_target = "Trace amine-associated receptor 1 (Homo sapiens) (UniProt Q96RJ0)"
val = 86

[[record]]
compound = "Cc1c(CNCCc2ccccc2)c(C(=O)O)c(C)n1-c1ccccc1"
test_target = "Trace amine-associated receptor 1 (Homo sapiens) (UniProt Q96RJ0)"
val = 53.7


====

# test target: Trace amine-associated receptor 1 (Homo sapiens) (UniProt Q96RJ0)
# method: TAAR1 desensitization by agonist hits, confirmation, counter-screen for TAAR1 agonist project, cell-based, fluorescence, tachyphylaxis (AID 651951);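 also: beta-PEA stimulus applied at its EC80; loss of beta-PEA calcium signal after compound pretreatment read as receptor desensitization; 0% = DMSO with beta-PEA at EC80 and 100% = DMSO alone without agonist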
# measurement context: CHO RD-HGA16 hTAAR1, Fluo-8 calcium, beta-PEA response inhibition; at 3 µM; hits give high values
Among all 2,400 compounds or so, about 1,100 (46%) were called active. So high a share suggests a set chosen from earlier hits. The list is a sample of the results.
property: inhibition (%)

[[record]]
molecule = "COc1ccc2c(c1)OC(O)(C(F)(F)C(F)F)CC2=O (stereo not given)"
val = 11.2

[[record]]
molecule = "C[C@H](NC(=O)c1ccccc1)C(=O)OCC(=O)c1c[nH]c2ccccc12"
val = 79.2

[[record]]
molecule = "COc1ccc(C(=O)CN2C(=O)NC(C)(c3ccc(C)cc3)C2=O)cc1OC (stereo not given)"
val = 10.7

[[record]]
molecule = "COc1cc(OC)c(-n2cc(-c3ccc(Cl)cc3)[nH]c2=O)cc1Cl"
val = 79.8

[[record]]
molecule = "CC(NC(=O)c1cc(-c2ccccc2)on1)c1ccccc1 (stereo not given)"
val = 51.1

[[record]]
molecule = "NC[C@H](Cc1ccccc1)NCCc1cc(C(F)(F)F)cc(C(F)(F)F)c1"
val = 12.9

[[record]]
molecule = "Nc1nnn(CC(=O)N/N=C/c2ccccc2)n1"
val = 17.8

[[record]]
molecule = "O=C(Cc1ccc(Cl)cc1)NC(=S)Nc1ccccc1O"
val = 106

[[record]]
molecule = "O=C(/C=C/[C@H]1O[C@@H](n2cnc3c(NC(=O)c4ccccc4)ncnc32)[C@H](O)[C@@H]1O)NCc1ccccc1"
val = -5.17

[[record]]
molecule = "CN(C)c1ccc(/C=C2\\NC(=S)N(Cc3ccccc3)C2=O)cc1"
val = 63.9

